system: HCC-2998 colon; experiment: NCI-60 one-dose screen, 48 h (100 = growth as untreated, 0 = no growth, -100 = all killed); details: 10 µM unless noted
Compounds without any hit were thinned out: in the full panel of roughly 83,000, 20% have a hit. The source made the active and inactive calls. The calls were made as follows: active = growth percent below 10; inactive = the rest.
Record form. Attribute: growth. Fill in for each entry.

Notebook: `O=C(/C=C/c1c(-c2ccccc2)[nH]c2ccccc12)S(=O)(=O)c1ccccc1` , growth read as 60.7% (inactive)

growth reading for `Nc1ccc(N=Nc2ccccc2)cc1[N+](=O)[O-]` : 103% (inactive)

Note to self: growth recorded for `COc1ccc2c(=O)c(OC)c(-c3cc(OC)c(OC)c(OC)c3)oc2c1` was 82.5% (inactive)

The measured growth associated with `COC(=O)c1cc2oc(/C=N\NC(=O)c3cc4oc(C)c(C)c4[nH]3)cc2[nH]1` reads 101% (inactive)

The measured growth associated with `Cc1ccc(S(=O)(=O)N2CCN(C(=O)CSc3nc4ccc(C)cc4[nH]3)CC2)cc1` reads 122% (inactive)

# growth of `CCCCCCCCN(CCO)CCCCCCCC` = 114% (inactive)

Notebook: `C(=C1c2ccccc2-c2ccccc21)c1ccncc1` , growth read as 66.6% (inactive)

growth recorded for this compound, `Cc1cc2ccccn2c1C(=O)c1ccc(C(=O)c2ccccc2)cc1` , is 83.8% (inactive)

Form field growth, entry `CCOC(=O)CNC(=O)C1(NC(=O)CNC(=O)OCc2ccccc2)CCCC1` : 105% (inactive)

Notebook: `COc1cnc2c(c1)C(=O)c1c-2n(CCCN2CCC(O)CC2)c(=O)c2cc(F)ccc12` , growth read as 13.5% (inactive)

compound `COc1ccc(/C=C/C(=O)c2cccc(NS(C)(=O)=O)c2)cc1` , growth observed: 111% (inactive)

The recorded growth for entry O=C1CSC(c2ccccc2O)N1c1nnc(Cn2ccnc2)o1 (stereo unspecified) equals 67.1% (inactive)

Briefly, growth measured for COc1cc(/C=C/C(=O)C(C(=O)/C=C/c2ccc(OC(=O)CCNC34CC5CC(CC(C5)C3)C4)c(OC)c2)C(=O)CCNC23CC4CC(CC(C4)C2)C3)ccc1OC(=O)CCNC12CC3CC(CC(C3)C1)C2 (stereo unspecified) : -48% (active)

O=C(O)C1C(c2ccccc2)c2ccccc2C(O)C1CO (stereo unspecified) yielded growth of 106% (inactive)

Looking up `CCN(CC)CCSc1ncnc2c1cnn2-c1ccc(S(N)(=O)=O)cc1` , I see its growth listed as 97.8% (inactive)

Just so you know, measured growth for `COc1ccc(-c2nc3sc4c(c3c(=O)[nH]2)CCCCCC4)cc1` came out at 80.9% (inactive)

For this compound ( BrC1CC(Br)c2c1c1c(c3c2C(Br)CC3Br)C(Br)CC1Br (stereo unspecified) ), measured growth is 87.5% (inactive)

For this compound ( CC12CCC3C(=CCc4cc(O)ccc43)C1CCC2=O (stereo unspecified) ), measured growth is 111% (inactive)

Per the record, COc1ccc(C2CC(c3ccc(Nc4ccnc5cc(Cl)ccc45)cc3)=NN2C(C)=O)cc1 (stereo unspecified) has growth of 70% (inactive)

Measured growth, CN(C)c1ncnc2c1ncn2C1CCCCO1 (stereo unspecified) : 96.7% (inactive)

Sure, the documented growth for `N#Cc1c(-c2ccccc2)cc(-c2ccccc2)n(CCCCC(=O)O)c1=O` is 95.6% (inactive)

====

tested on: OVCAR-3 ovarian; test: NCI-60 one-dose screen, 48 h; conditions: 10 µM unless noted
This is part of a sample that, as a whole, favours compounds with a hit. Of some 83,000 tested, about 20% had one in any assay. Active and inactive are the calls of the source. The calls were made as follows: active = growth percent below 10; inactive = the rest.
Select the matching outcome among yes (1) (active), no (0) (inactive)

For Cc1cn(C(C=O)OC(C=O)CO)c(=O)[nH]c1=O (stereo unspecified) , which call appears in the assay record?
no (0)

Check the results log: what was the call for `Cc1cc2c(cc1C)[n+](Cc1ccc3ccccc3c1)cn2Cc1ccc2ccccc2c1` ?
yes (1)

Returns: the outcome recorded for O=CN1N=C(c2ccc(Cl)cc2)CC1c1cccc(Nc2ccnc3cc(Cl)ccc23)c1 (stereo unspecified) in this assay.
no (0)

Please let me know the test result on file for `COc1ccc(/C=C2/SC(=Nc3c(C)nn(-c4ccccc4)c3N)NC2=O)cc1` .
yes (1)

Dear colleague, could you share the recorded outcome for `COc1ccc(/C=C2\CCc3ccccc3C2=O)cc1` when you have a moment?
no (0)

For CCCCCCC(CC#N)(CCC)CCCC (stereo unspecified) , what call appears in the results of this test?
no (0)

====

Tested on: SK-MEL-2 melanoma
Experiment: NCI-60 one-dose screen, 48 h (100 = growth as untreated, 0 = no growth, -100 = all killed)
Conditions: 10 µM unless noted
Procedure: Growth inhibition of the SK-MEL-2 human tumor cell line is measured as a screen for anti-cancer activity. Cells are grown in 96 well plates and exposed to the test compound for 48 hours. Compounds are tested at a single concentration, which is 10^-5 M for most compounds. The reported endpoint is percent growth (GI% or GIPRCNT), where numbers from 0 - 100% represent growth inhibition, and numbers from -100% - 0 represent cell death. For example, a value of 40 represents 60% growth inhibition. […]
This is part of a sample that, as a whole, favours compounds with a hit. Of some 83,000 tested, about 20% had one in any assay.
Outcome: Fulfilled for growth of at least 90%; Not fulfilled for anything lower.

Quick check, growth >= 90%? COc1ccc(OC)c2c1CCC1(C2)NC(=O)NC1=O (stereo not given)
Fulfilled

Does growth meet or surpass 90% for CC(=O)N1N=C(c2ccc(Nc3ccnc4cc(Cl)ccc34)cc2)CC1c1ccc(Cl)cc1 (stereo not given) ?
Not fulfilled

Determine whether this compound has growth no lower than 90%: `O=C(O)CNC(=O)C1(N2C(=O)c3ccccc3C2=O)CCCC1`
Fulfilled

Answer whether growth of `COc1cc(/C=C/C(=O)c2c(C)n([O-])c3ccc(Cl)cc3[n+]2=O)cc(OC)c1OC` is greater than or equal to 90%.
Not fulfilled

Say whether `C/C(=C\CCc1ccoc1)CC/C=C(\C)CCCN1CCSCC1` shows growth of 90% or more.
Not fulfilled

Entry C/C(=C\CCc1ccoc1)CC/C=C(\C)CCCC1COC(=O)C1 (stereo not given) : is its growth no less than 90%?
Fulfilled

Hi team, for `NC(=O)c1cc(Cl)ccc1NC(=O)c1ccccc1-c1ccccc1` , is the recorded growth at or above 90%?
Not fulfilled

Entry `Cc1[nH]cnc1/C=C1\SC(N2CCCCC2)=NC1=O` : is its growth no less than 90%?
Fulfilled

Reported growth reaches at least 90% for `C=C(CN1CCc2c([nH]c3ccccc23)C1)c1ccc(C(=O)Nc2ccon2)cc1` ?
Not fulfilled

Please tell me: is the compound `C[C@H]1C(=O)N2c3ccccc3[C@@]3(O)C[C@@H](n4cnc5ccccc5c4=O)C(=O)N1[C@@H]23` at or over 90% in terms of growth?
Not fulfilled

====

test system: SF-295 CNS; experiment: NCI-60 one-dose screen, 48 h; details: 10 µM unless noted
About 83,000 compounds went through this panel and 20% of them were active in at least one assay; those are over-represented in the sample as a whole. The source made the active and inactive calls. Rule for the calls: active = growth percent below 10; inactive = the rest.
Your reply should match one of these outcome classes. Y (active), N (inactive)

Give the logged outcome of this assay for the following compound: C=C1CCC2C3(C)COC(c4ccccc4)OC3CCC2(C)C1C/C=C1/C(=O)OCC1OC(C)=O (stereo not drawn)
N

Hi, do you know how C[C@H]1O[C@@H](O[C@H]2[C@@H](O)C[C@H](O[C@H]3[C@@H](O)C[C@H](O[C@H]4CC[C@]5(C)C6CC[C@]7(C)[C@@H](C8=CC(=O)OC8)CC[C@]7(O)C6CC[C@@H]5C4)O[C@@H]3C)O[C@@H]2C)C[C@H](O)[C@@H]1O (stereo partly drawn) came out in this test?
Y

Hey, what did the test say about `COc1cc(C(=O)/C=C/c2cccc(Nc3ccnc4cc(Cl)ccc34)c2)cc(OC)c1OC` ?
Y

Please indicate how the test categorized `Nc1ccc2c(c1)C(=O)c1cc(Cl)c(Cl)cc1-2` .
N

Please let me know the test result on file for `COc1ccc(/C=C/C(=O)c2cccc(NS(C)(=O)=O)c2)cc1` .
N

Write down the call the test reported for this compound. Item: `CCn1cnc(C[C@H](NC(=O)[C@H](CCCCNC(=O)Nc2cc(C(F)(F)F)cc(C(F)(F)F)c2)NC(=O)Nc2cc(C(F)(F)F)cc(C(F)(F)F)c2)C(=O)OC)c1`
Y

What classification did `O=C(O)c1ccc(CNS(=O)(=O)c2ccc3ccccc3c2)cc1` end up with in this test?
N

Tell me the recorded outcome of this test for `CCOC(=O)CCN(c1c(Cl)ssc1=O)C(C)C` .
N

====

test system: CCRF-CEM leukemia; test: NCI-60 one-dose screen, 48 h; settings: 10 µM unless noted
This is part of a sample that, as a whole, favours compounds with a hit. Of some 83,000 tested, about 20% had one in any assay. Active and inactive are the calls of the source. The calls were made as follows: active = growth percent below 10; inactive = the rest.
Please reply with one of these outcomes: label 1 (active), label 0 (inactive)

Which outcome was assigned to `Cc1cc2ccccn2c1C(=O)c1ccc(C(=O)c2ccccc2)cc1` in this test?
label 0

Write down the call the test reported for this compound. Item: `COc1ccc2ncccc2c1Cc1c(OC)ccc2ncccc12`
label 0

Could you check what this test reported for `O=C(C(=O)c1cc(Br)ccc1O)c1cc(Br)ccc1O` ?
label 0

// return assay outcome for `O=C(NN1C(=O)c2cc(C(=O)O)c(C(=O)O)cc2C1=O)c1ccncc1`
label 0

Field: outcome | Entry: COc1ccc(C2=NN(C(C)=O)C(c3cccc(Nc4ccnc5cc(Cl)ccc45)c3)C2)cc1 (configuration not stated)
label 0

Recorded test outcome, item `CC(=O)Nc1ccc(C(=O)COc2ccc(/C=C3\CCc4ccccc4C3=O)cc2)cc1`
label 0

Outcome? `O=[N+]([O-])c1ccc(N=Nc2c(Cl)cc(O)cc2Cl)cc1`
label 1

For this compound, state the assay outcome: `CCCCc1ccc(C(N)=O)nc1`
label 0

Write down the call the test reported for this compound. Item: `COC(=O)C1(NC(=O)CNC(=O)OCc2ccccc2)CCCC1`
label 0

Recorded test outcome, item `Oc1ccccc1/C=N/N1CCCCCC1`
label 0

Given `CC[C@@H](C)/C=C(C)/C=C/C(O)=C1\C(=O)N[C@@H](Cc2ccc(OC(=O)[C@@](OC)(c3ccccc3)C(F)(F)F)cc2)C1=O` , state the outcome it received in this test.
label 0

I would be grateful if you could indicate the recorded call for `c1ccc(Nc2ccc(Nc3nc(-c4ccccc4)nc4ccccc34)cc2)cc1` .
label 0

Can you look up the reported call for `Cc1cc(C)cc(S(=O)(=O)n2ccc(-c3ccc4c(c3)CCC(C)(C)O4)n2)c1` for me?
label 0

Fill in: this test's call for `Nc1ccc2c(c1)C(=O)c1cc(Cl)c(Cl)cc1-2` is ___
label 0

Each compound tested received a call. Report the one for `O=C(CNC(=O)c1cccc2ccccc12)Nc1ccccc1Oc1cccc(O)c1` .
label 0

# outcome recorded in this test, key = `O=c1ncc(-c2ccc(C(F)(F)F)cc2)c(NC2CCCCCC2)[nH]1`
label 0

What did the test return for `C[C@]12CCC(=O)C=C1CC[C@H]1[C@@H]3C[C@@H](O)[C@](O)(C(=O)CO)[C@@]3(C)C[C@H](O)[C@@]12F` ?
label 0

Please let me know the test result on file for `COc1ccc(C(=O)COc2cccc(/C=C3\COc4ccc5ccccc5c4C3=O)c2)cc1` .
label 0

Please share the test call associated with `C/C(=C\CCc1ccoc1)CC/C=C(\C)CCCN1CCSCC1` .
label 0

Per the assay record, what outcome was assigned to `c1ccc(N2c3nc4ccccc4cc3Sc3cc4ccccc4nc32)nc1` ?
label 0

What classification did `COc1ccc(-c2nnc3c4[nH]cnc4ncn23)c(OC)c1` end up with in this test?
label 0

How did this test come out for `CCSc1nc(-c2ccco2)n2nc(-c3ccco3)cc2n1` ?
label 0
